// provenance: patent US20110059095A1

- assayed-target: T1, Peptide B (human PAR-2), N-terminal biotinylated (Human)
- T1 construct: also called Peptide B N-Term
- T1 peptide: Biotin-GGGGSSLIGKVDGTSHVTG
- measurement-description: SPR, peptide immobilized
Where no end group is shown, it is not given here. The star is where a group is joined. Biotin = O=C1N[C@H]2[C@H](CS[C@H]2CCCCC(=O)*)N1

{"binder": "H4H584P (antibody, human IgG4, V domains shown, also called H1H584P variable regions) VH: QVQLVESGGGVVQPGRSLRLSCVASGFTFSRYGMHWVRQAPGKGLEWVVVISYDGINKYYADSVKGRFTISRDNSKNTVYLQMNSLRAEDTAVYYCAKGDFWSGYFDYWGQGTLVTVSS VL: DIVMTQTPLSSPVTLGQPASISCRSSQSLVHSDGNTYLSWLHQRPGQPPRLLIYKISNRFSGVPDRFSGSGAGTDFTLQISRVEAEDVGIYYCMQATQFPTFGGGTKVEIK", "Kd / nM": 3.2}
